Molecular target: UniProtKB P00734
Test: Sub-library screen for active and permeable cyclic peptides (PAMPA plus thrombin inhibition)
Format: biochemical
Conditions: PAMPA acceptor well after 14 h, 5 μM donor; crude; slopes normalized to DMSO
Excerpt: Linear dithiol peptides were synthesized in fritted 5-ml polypropylene syringes on a MultiPep RSi parallel peptide synthesizer (Intavis) by standard Fmoc-based solid-phase peptide synthesis on cysteamine 2-chlorotrityl resin (Sigma-Aldrich, 8.56000, 1.63 mmol g^−1 loading, 25 μmol scale) as described above with small changes. […] After quantification with Ellman’s reagent, 1 μmol of each peptide was transferred in seven replicates to new Nunc 96-well DeepWell polypropylene plates and lyophilized. […]
MEASURED_ENDPOINT: Residual thrombin activity: Top sample

>>> reported("COc1ccc(C[C@@H]2NC(=O)[C@@H](NC(=O)c3ccc(Cl)s3)CCSCc3ccccc3CSCCNC(=O)C[C@H]3CCCN3C2=O)cc1")
92.7
>>> reported("O=C1CSCCNC(=O)C[C@H]2CCCN2C(=O)[C@H](Cc2ccccc2)NC(=O)[C@@H](NC(=O)c2ccc(Cl)s2)CCSC1")
95.7
>>> reported("O=C1C[C@H]2CCCN2C(=O)[C@H](Cc2ccc(C(F)(F)F)cc2)NC(=O)[C@@H](NC(=O)c2ccc(Cl)s2)CSCc2ccc(cc2)CSCCN1")
95.8
>>> reported("O=C1C[C@H]2CCCN2C(=O)[C@H](Cc2ccccc2)NC(=O)[C@@H](NC(=O)c2ccc(Cl)s2)CCSCc2cccc(n2)CSCCN1")
56.1
>>> reported("Cc1cccc(C[C@@H]2NC(=O)[C@@H](NC(=O)c3ccc(Cl)s3)CCSCc3cccc(n3)CSCCNC(=O)C[C@H]3CCCN3C2=O)c1")
88.2
>>> reported("Cc1cccc(C[C@@H]2NC(=O)[C@@H](NC(=O)c3ccc(Cl)s3)CCCSCCS(=O)(=O)CCSCCNC(=O)C[C@H]3CCCN3C2=O)c1")
92.4
>>> reported("CN1C(=O)[C@@H](NC(=O)c2ccc(Cl)s2)CCCSCC(=O)CSCCNC(=O)C[C@H]2CCCN2C(=O)[C@@H]1Cc1ccccc1")
102.9
>>> reported("N#Cc1ccc(C[C@@H]2NC(=O)[C@@H](NC(=O)c3ccc(Cl)s3)CSCCS(=O)(=O)CCSCCNC(=O)C[C@H]3CCCN3C2=O)cc1")
95.6
>>> reported("CN1C(=O)[C@@H](NC(=O)c2ccc(Cl)s2)CSCc2cccc(c2)CSCCNC(=O)C[C@H]2CCCN2C(=O)[C@@H]1Cc1ccccc1")
98.6
>>> reported("Cc1cccc(C[C@@H]2NC(=O)[C@@H](NC(=O)c3ccc(Cl)s3)CCSC/C=C/CSCCNC(=O)C[C@H]3CCCN3C2=O)c1")
90.6
>>> reported("O=C1C[C@H]2CCCN2C(=O)[C@@H](Cc2ccccc2)NC(=O)[C@@H](NC(=O)c2ccc(Cl)s2)CCCSCc2cccc(n2)CSCCN1")
96.1
>>> reported("CN1C(=O)[C@@H](NC(=O)c2ccc(Cl)s2)CSCc2ccccc2CSCCNC(=O)C[C@H]2CCCN2C(=O)[C@@H]1Cc1ccccc1")
91.7

====

Assay: Metabolic stability in rat liver microsomes (RLMs)
Conditions: rat liver microsomes, 5 min, replicate R3
# reported TIC value of compound, 5 min, R3; entries follow
MEASURED_ENDPOINT: TIC value of compound, 5 min, R3

>>> reported("O=C1C[C@H]2CCCN2C(=O)[C@H](Cc2ccccc2)NC(=O)[C@@H](NC(=O)c2ccc(Cl)s2)CCSCc2cccc(n2)CSCCN1 [compound 33]")
18024716
>>> reported("O=C1C[C@H]2CCCN2C(=O)[C@H](Cc2ccccc2)NC(=O)[C@@H](NC(=O)c2ccc(Cl)s2)CCCSCc2cccc(n2)CSCCN1 [compound 35]")
23019710
>>> reported("O=C1C[C@H]2CCCN2C(=O)[C@H](Cc2ccccc2)NC(=O)[C@@H](NC(=O)c2ccc(Cl)s2)CSC/C=C/CSCCN1 [peptide 32]")
2686035
>>> reported("O=C1C[C@H]2CCCN2C(=O)[C@H](Cc2ccccc2)NC(=O)[C@@H](NC(=O)c2ccc(Cl)s2)CCCSC/C=C/CSCCN1 [compound 36]")
9591941
>>> reported("O=C1C[C@H]2CCCN2C(=O)[C@H](Cc2ccccc2)NC(=O)[C@@H](NC(=O)c2ccc(Cl)s2)CSCc2cccc(n2)CSCCN1 [compound 31]")
21185792
>>> reported("O=C1C[C@H]2CCCN2C(=O)[C@H](Cc2ccccc2)NC(=O)[C@@H](NC(=O)c2ccc(Cl)s2)CCSC/C=C/CSCCN1 [compound 34]")
10806046
>>> reported("O=C1CSCCC[C@H](NC(=O)c2ccc(Cl)s2)C(=O)N[C@@H](Cc2ccccc2)C(=O)N2CCC[C@@H]2CC(=O)NCCSC1 [compound 37]")
7487448

====

Target: human α-thrombin (Homo sapiens, UniProt P00734)
Assay: Sub-library screen for active and permeable cyclic peptides (PAMPA plus thrombin inhibition)
Assay type: biochemical
Settings: donor sample diluted to theoretical equilibrium (1 μM in assay); crude; slopes normalized to DMSO
# if value of Residual thrombin activity: Equilibrated sample reaches 100, tag True; if it stays below, tag False

>>> class_assignment("O=C1C[C@H]2CCCN2C(=O)[C@H](Cc2ccc(C(F)(F)F)cc2)NC(=O)[C@@H](NC(=O)c2ccc(Cl)s2)CSCc2ccccc2CSCCN1")
"False"
>>> class_assignment("Cc1cccc(C[C@@H]2NC(=O)[C@@H](NC(=O)c3ccc(Cl)s3)CCSCc3ccc(cc3)CSCCNC(=O)C[C@H]3CCCN3C2=O)c1")
"False"
>>> class_assignment("COc1ccc(C[C@@H]2NC(=O)[C@@H](NC(=O)c3ccc(Cl)s3)CCCSCc3ccc(cc3)CSCCNC(=O)C[C@H]3CCCN3C2=O)cc1")
"True"
>>> class_assignment("O=C1C[C@H]2CCCN2C(=O)[C@H](Cc2ccc(Cl)cc2)NC(=O)[C@@H](NC(=O)c2ccc(Cl)s2)CCSCc2cccc(n2)CSCCN1")
"False"

====

Biological target: human α-thrombin (Homo sapiens)
Experiment: Sub-library screen for active and permeable cyclic peptides (PAMPA plus thrombin inhibition)
Format: biochemical
Conditions: donor sample diluted to theoretical equilibrium (1 μM in assay); crude; slopes normalized to DMSO
From the text: Linear dithiol peptides were synthesized in fritted 5-ml polypropylene syringes on a MultiPep RSi parallel peptide synthesizer (Intavis) by standard Fmoc-based solid-phase peptide synthesis on cysteamine 2-chlorotrityl resin (Sigma-Aldrich, 8.56000, 1.63 mmol g^−1 loading, 25 μmol scale) as described above with small changes. […] After quantification with Ellman’s reagent, 1 μmol of each peptide was transferred in seven replicates to new Nunc 96-well DeepWell polypropylene plates and lyophilized. […]
Each entry belongs to exactly one class, chosen by where its Residual thrombin activity: Equilibrated sample falls: low value (below 90), medium value (90 to below 100), high value (100 or more)

>>> class_assignment("O=C1C[C@H]2CCCN2C(=O)[C@@H](Cc2ccccc2)NC(=O)[C@@H](NC(=O)c2ccc(Cl)s2)CSCc2cccc(n2)CSCCN1")
"medium value"
>>> class_assignment("O=C1C[C@H]2CCCN2C(=O)[C@H](Cc2ccccc2)NC(=O)[C@@H](NC(=O)c2ccc(Cl)s2)CSCc2cccc(n2)CSCCN1")
"low value"
>>> class_assignment("Cc1cccc(C[C@@H]2NC(=O)[C@@H](NC(=O)c3ccc(Cl)s3)CSCc3cccc(n3)CSCCNC(=O)C[C@H]3CCCN3C2=O)c1")
"low value"
>>> class_assignment("O=C1C[C@H]2CCCN2C(=O)[C@H](Cc2ccc(C(F)(F)F)cc2)NC(=O)[C@@H](NC(=O)c2ccc(Cl)s2)CSCc2cccc(c2)CSCCN1")
"high value"
>>> class_assignment("O=C1C[C@H]2CCCN2C(=O)[C@@H](Cc2ccccc2)NC(=O)[C@@H](NC(=O)c2ccc(Cl)s2)CCCSCCS(=O)(=O)CCSCCN1")
"medium value"
>>> class_assignment("O=C1C[C@H]2CCCN2C(=O)[C@H](Cc2ccc(Cl)cc2)NC(=O)[C@@H](NC(=O)c2ccc(Cl)s2)CCCSCc2cccc(n2)CSCCN1")
"medium value"

====

Assay: Metabolic stability in rat liver microsomes (RLMs)
Settings: rat, microsomes, pH 7.4, Metabolic stability: Half life T1/2 (min), RLMs; mean and SD, three measurements
# reported half-life; entries follow
MEASURED_ENDPOINT: half-life

>>> reported("O=C1C[C@H]2CCCN2C(=O)[C@H](Cc2ccccc2)NC(=O)[C@@H](NC(=O)c2ccc(Cl)cc2)CCC=CCCCCN1 (mixture of isomers) [peptide 46]")
"33 min"
>>> reported("CN1CCC(=O)NCCSCCS(=O)(=O)CCSC[C@H](NC(=O)c2ccc(Cl)s2)C(=O)N[C@@H](Cc2ccccc2)C1=O")
"12.7 min"
>>> reported("O=C1C[C@H]2CCCN2C(=O)[C@H](Cc2ccccc2)NC(=O)[C@@H](NC(=O)c2ccc(Cl)s2)CCC=CCCCCN1 [peptide 43]")
"16.3 min"
